test system: SN12C renal; assay: NCI tumour cell line growth inhibition, 48 h
List of TGI values.

Worked cases, answers included:
{"COMPOUND": "O=C(CSCC(=O)N/N=C\\c1ccc(-c2ccccc2)cc1)N/N=C\\c1ccc(-c2ccccc2)cc1", "EXPERIMENTAL_RESULT": "53.6 µM"}
{"COMPOUND": "CCOC(=O)CCC(NC(=O)c1ccc(N2CCN(c3c(C)nc(N)nc3N)CC2)cc1)C(=O)OCC (centres undefined)", "EXPERIMENTAL_RESULT": "> 100 µM"}
{"COMPOUND": "Brc1ccc2[nH]cc(-c3nc(-c4c[nH]c5ccccc45)cs3)c2c1", "EXPERIMENTAL_RESULT": "13.9 µM"}
{"COMPOUND": "O=C(N/N=C\\c1ccc2ccccc2c1)Nc1ccc([N+](=O)[O-])cc1", "EXPERIMENTAL_RESULT": "> 59.8 µM"}
{"COMPOUND": "Clc1nc(Cl)c2ncn(Cc3ccc(COc4cccc(OCc5ccc(Cn6cnc7c(Cl)nc(Cl)nc76)cc5)c4)cc3)c2n1", "EXPERIMENTAL_RESULT": "> 100 µM"}

// recorded TGI for "CC(C)CC1=[N+]=C(NC#N)N=C(CCC(=O)Nc2ccccc2[N+](=O)[O-])C1" : > 100 µM

// recorded TGI for "CCCCCCCCCc1cc(=O)c2ccc(O)cc2o1" : > 100 µM

// recorded TGI for "O=[N+]([O-])c1cn[n+]([O-])c2ccccc12" : 21.5 µM

// recorded TGI for "COc1ccc(NC(=O)/C(=C/c2ccc(N(CCC#N)CCC#N)cc2)NC(=O)c2cc([N+](=O)[O-])ccc2Cl)cc1" : > 100 µM
